# ASSAY_NAME: Evaluation of stability in human liver microsome
# Assay type: in vitro ADME
# APPLIED_CONDITIONS: human, 15 min, 5 μmol/L, pH 7.4
PROPERTY_MEASURED: Residual rate (%)

CC(O)(c1cc(Cl)c(NC(=O)NCc2cc3cc(F)ccc3[nH]2)c(Cl)c1)C(F)(F)F (centres unmarked) [Example 5 (13)] : 75
CC(O)(c1cc(Cl)c(NC(=O)NCCC(F)(F)F)c(Cl)c1)C(F)(F)F (centres unmarked) [Example 5 (19)] : 100
NC(c1cc(Cl)c(NC(=O)NCc2ccc(C(F)(F)F)cn2)c(Cl)c1)C(F)(F)F (centres unmarked) [Example 79 (1)] : 82
O=C(NCc1cnc(C(F)(F)F)s1)Nc1c(Cl)cc([C@H](O)C(F)(F)F)cc1Cl [Example 36] : 100
CC(O)(c1cc(Cl)c(NC(=O)Cc2ccc(F)cc2)c(Cl)c1)C(F)(F)F (centres unmarked) [Example 50 (1)] : 96
O=C(NCc1ncc(C(F)(F)F)cn1)Nc1c(Cl)cc([C@@H](O)C(F)(F)F)cc1Cl [Example 32 (4)] : 100
O=C(NCc1cnc(C(F)(F)F)nc1)Nc1c(Cl)cc([C@H](O)C(F)(F)F)cc1Cl [Example 35 (3)] : 100
CC(O)(c1cc(Cl)c(NC(=O)NCc2ccc(C(F)(F)F)cn2)c(Cl)c1)C(F)F (centres unmarked) [Example 75] : 100
Cc1cc(C(O)C(F)(F)F)ccc1NC(=O)NCc1ccc(C(F)(F)F)cn1 (centres unmarked) [Example 60] : 98
O=C(NCc1cnc(C(F)(F)F)s1)Nc1c(Cl)cc([C@@H](O)C(F)(F)F)cc1Cl [Example 33] : 100
O=C(NCc1nc(C(F)(F)F)no1)Nc1c(Cl)cc([C@H](O)C(F)(F)F)cc1Cl [Example 35 (1)] : 100
C[C@](O)(c1cc(Cl)c(NC(=O)NCc2ccc(Cl)cn2)c(Cl)c1)C(F)(F)F [Example 25 (5)] : 87
C[C@@](O)(c1cc(Cl)c(NC(=O)NCc2ccc(Oc3ccc(F)cc3)cc2)c(Cl)c1)C(F)(F)F [Example 22 (16)] : 94
C[C@@](O)(c1cc(Cl)c(NC(=O)NCc2ccc(C(F)(F)F)cn2)c(Cl)c1)C(F)(F)F [Example 22 (1)] : 100
C[C@@](O)(c1cc(Cl)c(NC(=O)NCc2ccc(C#N)cc2)c(Cl)c1)C(F)(F)F [Example 22 (15)] : 93
C[C@@](O)(c1cc(Cl)c(NC(=O)NCc2ncc(C(F)(F)F)cn2)c(Cl)c1)C(F)(F)F [Example 22 (2)] : 100
O=C(NCc1cnc(C(F)(F)F)nc1)Nc1c(Cl)cc([C@@H](O)C(F)(F)F)cc1Cl [Example 32 (3)] : 100
CC(O)(c1cc(Cl)c(NC(=O)NC[C@@H]2CCCO2)c(Cl)c1)C(F)(F)F (some centres unmarked) [Example 5 (15)] : 97
C[C@@H](NC(=O)Nc1c(Cl)cc(C(C)(O)C(F)(F)F)cc1Cl)C1CC1 (some centres unmarked) [Example 5 (20)] : 91
C[C@](O)(c1cc(Cl)c(NC(=O)NCc2ccc(C(F)(F)F)nc2)c(Cl)c1)C(F)(F)F [Example 25 (2)] : 80
C[C@](O)(c1cc(Cl)c(NC(=O)NCc2ncc(C(F)(F)F)cn2)c(Cl)c1)C(F)(F)F [Example 25 (1)] : 78
C[C@@](O)(c1cc(Cl)c(NC(=O)NCc2ccc(C(F)(F)F)nc2)c(Cl)c1)C(F)(F)F [Example 22 (3)] : 98
C[C@](O)(c1cc(Cl)c(NC(=O)NCc2ccc(OCC(F)(F)F)nc2)c(Cl)c1)C(F)(F)F [Example 25 (6)] : 73

---

# ASSAY_NAME: Solubility test (DMSO precipitation method, Pharmacopoeia of Japan elution test second solution)
# Assay type: physicochemical
# APPLIED_CONDITIONS: aqueous buffer, kinetic from dmso stock; Pharmacopoeia of Japan elution test second solution pH=6.8, room temperature, five hours; quantitation range 5 to 100 μM
# Experimental: A calibration curve solution was prepared by diluting a test substance (10 mM DMSO solution) with acetonitrile and adding acetonitrile including an internal standard substance (candesartan) so as to be 0.1, 0.4, and 2 μM. […] The calibration curve and sample solutions in the amount of 5 μL were infused into LC-MS/MS (Discovery Max manufactured by Thermo Scientific) and subjected to quantitation (quantitation range: 5 to 100 μM).
PROPERTY_MEASURED: solubility at 5 h (µM)

Here are 8 molecules together with their reported answers.
O=C(NCc1cnc(C(F)(F)F)s1)Nc1c(Cl)cc([C@H](O)C(F)(F)F)cc1Cl [Example 36] : 44
CC(O)(c1cc(Cl)c(NC(=O)NCc2cc3cc(F)ccc3[nH]2)c(Cl)c1)C(F)(F)F (stereo not shown) [Example 5 (13)] : 81
O=C(NCc1nc(C(F)(F)F)no1)Nc1c(Cl)cc([C@@H](O)C(F)(F)F)cc1Cl [Example 32 (1)] : 100
CC(NC(=O)Nc1c(Cl)cc(C(C)(O)C(F)(F)F)cc1Cl)C(C)(C)C (stereo not shown) [Example 5 (4)] : 79
C[C@](O)(c1cc(Cl)c(NC(=O)NCc2ccc(OCC(F)(F)F)nc2)c(Cl)c1)C(F)(F)F [Example 25 (6)] : 40
C[C@@](O)(c1cc(Cl)c(NC(=O)NCc2ccc(C(F)(F)F)cn2)c(Cl)c1)C(F)(F)F [Example 22 (1)] : 77
CC1(C)CC(CNC(=O)Nc2c(Cl)cc(C(C)(O)C(F)(F)F)cc2Cl)CCO1 (stereo not shown) [Example 5 (5)] : 93
NC(c1cc(Cl)c(NC(=O)NCc2ccc(C(F)(F)F)cn2)c(Cl)c1)C(F)(F)F (stereo not shown) [Example 79 (1)] : 87

(I) O=C(NCc1cnc(C(F)(F)F)s1)Nc1c(Cl)cc([C@@H](O)C(F)(F)F)cc1Cl [Example 33]
(II) CC(O)(c1cc(Cl)c(NC(=O)CCc2ccc(F)cc2)c(Cl)c1)C(F)(F)F (stereo not shown) [Example 50 (2)]
Which record would sort first by descending solubility at 5 h, I or II ? Field: selected label. Fill in the label of the entry you choose. I

---

# STUDY_SYSTEM: Human KCNQ2/3 channel (Homo sapiens (Human), UniProt O43525+O43526)
# ASSAY_NAME: Opening action with respect to KCNQ2/3 channel by depolarization stimulation (thallium influx, FLIPR)
# APPLIED_CONDITIONS: concentration giving 50% of maximum reaction of retigabine (10 μM); human KCNQ2/3 expression CHO-DHFR- cells; 5 mM potassium and 0.5 mM thallium; read-out: KCNQ2/3 ECrtg50
pEC50: −log10 of the molar value.
PROPERTY_MEASURED: pEC50

CC(O)(c1cc(Cl)c(NC(=O)NCc2ccc(Br)cn2)c(Cl)c1)C(F)(F)F (stereo not drawn) [Example 5 (11)] : 7.15

(A) CC(O)(c1cc(F)c(NC(=O)NCc2ccc(C(F)(F)F)cn2)c(Cl)c1)C(F)(F)F (stereo not drawn) [Example 49]
(B) C[C@](O)(c1cc(Cl)c(NC(=O)NCc2ccc(C(F)(F)F)nc2)c(Cl)c1)C(F)(F)F [Example 25 (2)]
(C) Cc1cc(C(O)C(F)(F)F)cc(Cl)c1NC(=O)NCc1ccc(C(F)(F)F)cn1 (stereo not drawn) [Example 62]
(D) C[C@](O)(c1cc(Cl)c(NC(=O)NCc2ncc(C(F)(F)F)cn2)c(Cl)c1)C(F)(F)F [Example 25 (1)]
Order each entry by recorded pEC50, climbing from the minimum. Form entry: ranked labels (order as requested). D, A, B, C
(D: 5.85, A: 6.22, B: 6.52, C: 7.22)

---

# STUDY_SYSTEM: Human KCNQ2/3 channel (Homo sapiens (Human), UniProt O43525+O43526)
# ASSAY_NAME: Opening action with respect to KCNQ2/3 channel by depolarization stimulation (thallium influx, FLIPR)
# APPLIED_CONDITIONS: concentration giving 50% of maximum reaction of retigabine (10 μM); human KCNQ2/3 expression CHO-DHFR- cells; 5 mM potassium and 0.5 mM thallium; read-out: KCNQ2/3 ECrtg50
pEC50: −log10 of the molar value.
PROPERTY_MEASURED: pEC50

Here are 2 compounds together with their reported answers.
CC(O)(c1cc(Cl)c(NC(=O)NCCC(F)(F)F)c(Cl)c1)C(F)(F)F (centres unmarked) : 7.00
C[C@@H](NC(=O)Nc1c(Cl)cc(C(C)(O)C(F)(F)F)cc1Cl)C1CC1 (some centres unmarked) : 6.30

(I) CC(O)(c1cc(Cl)c(NC(=O)NCC2CCCCC2)c(Cl)c1)C(F)(F)F (centres unmarked)
(II) CC(O)(c1cc(Cl)c(NC(=O)NCc2ncc(C(F)(F)F)cn2)c(Cl)c1F)C(F)(F)F (centres unmarked)
(III) CC(O)(c1cc(Cl)c(NC(=O)NCc2nccn2Cc2ccccc2)c(Cl)c1)C(F)(F)F (centres unmarked)
Ordering criterion: pEC50; begin with the maximum. Form entry: ranked labels (order as requested). I, II, III
